I'd be grateful if you could share measured melting point for these entries.

What does the record list as melting point for C(/C=C/c1ccc(/C=C/c2ccc(N(c3ccccc3)c3ccc(/C=C/c4ccc(/C=C/c5ccc(N(c6ccccc6)c6ccc(/C=C/c7ccc(/C=C/C=C(c8ccccc8)c8ccccc8)cc7)cc6)cc5)cc4)cc3)cc2)cc1)=C(c1ccccc1)c1ccccc1 ?
162 to 164 °C

Entry COc1ccc(N(c2ccc(/C=C/c3ccc(/C=C/C=C(c4ccccc4)c4ccccc4)cc3)cc2)c2ccc(/C=C/c3ccc(/C=C/c4ccc(N(c5ccc(/C=C/c6ccc(/C=C/C=C(c7ccccc7)c7ccccc7)cc6)cc5)c5ccc(OC)cc5)cc4)cc3)cc2)cc1 : reported melting point = ?
222 to 224 °C

Give the measured melting point of Cc1ccc(C(=C/C=C/c2ccc(/C=C/c3ccc(N(c4ccc(/C=C/c5ccc(/C=C/c6ccc(N(c7ccc(/C=C/c8ccc(/C=C/C=C(c9ccc(C)cc9)c9ccc(C)cc9)cc8)cc7)c7ccc(C)cc7C)cc6)cc5)cc4)c4ccc(C)cc4C)cc3)cc2)c2ccc(C)cc2)cc1 .
255 to 257 °C

Fill in the blank: the reported melting point of Cc1ccc(N(c2ccc(/C=C/c3ccc(/C=C/C=C(c4ccccc4)c4ccccc4)cc3)cc2)c2ccc(/C=C/c3ccc(/C=C/c4ccc(N(c5ccc(/C=C/c6ccc(/C=C/C=C(c7ccccc7)c7ccccc7)cc6)cc5)c5ccc(C)cc5C)cc4)cc3)cc2)c(C)c1 is ____.
161 to 163 °C

Looking for the measured melting point of Cc1ccc(N(c2ccc(/C=C/c3ccc(/C=C/C=C(c4ccccc4)c4ccccc4)cc3)cc2)c2ccc(/C=C/c3ccc(/C=C/c4ccc(N(c5ccc(C)cc5)c5ccc(/C=C/c6ccc(/C=C/C=C(c7ccccc7)c7ccccc7)cc6)cc5)cc4)cc3)cc2)cc1 , can you help?
178 to 180 °C

###

For each entry below, report its Solubility value.
- Test description: Solubility in tetrahydrofuran
- Type: physicochemical
- Condition summary: 25° C.; weight completely dissolved in 1 g of tetrahydrofuran
Write the number in g/g tetrahydrofuran without appending the unit.

Need Solubility, item Cc1ccc(N(c2ccc(/C=C/c3ccc(/C=C/C=C(c4ccccc4)c4ccccc4)cc3)cc2)c2ccc(/C=C/c3ccc(/C=C/c4ccc(N(c5ccc(C)cc5)c5ccc(/C=C/c6ccc(/C=C/C=C(c7ccccc7)c7ccccc7)cc6)cc5)cc4)cc3)cc2)cc1
0.16

Item under review: C(=Cc1ccc(N(c2ccccc2)c2ccc(C=C(c3ccccc3)c3ccccc3)cc2)cc1)c1ccc(C=Cc2ccc(N(c3ccccc3)c3ccc(C=C(c4ccccc4)c4ccccc4)cc3)cc2)cc1 [Comparative Compound (5), reference compound] . Reported Solubility?
0.03

Requested read-out: Solubility. Entry: COc1ccc(N(c2ccc(/C=C/c3ccc(/C=C/C=C(c4ccccc4)c4ccccc4)cc3)cc2)c2ccc(/C=C/c3ccc(/C=C/c4ccc(N(c5ccc(/C=C/c6ccc(/C=C/C=C(c7ccccc7)c7ccccc7)cc6)cc5)c5ccc(OC)cc5)cc4)cc3)cc2)cc1
0.14

Value lookup for Solubility; key = C(/C=C/c1ccc(/C=C/c2ccc(N(c3ccccc3)c3ccc(/C=C/c4ccc(/C=C/c5ccc(N(c6ccccc6)c6ccc(/C=C/c7ccc(/C=C/C=C(c8ccccc8)c8ccccc8)cc7)cc6)cc5)cc4)cc3)cc2)cc1)=C(c1ccccc1)c1ccccc1
0.13

Values from patent US10795272B2
